Hey, just so you know, these numbers are from PubChem BioAssay AID602235.

molecular target: Nuclear receptor coactivator 1 (Homo sapiens); experiment: SRC1 (NCOA1) coactivator inhibitors, dose response, cell-based, luciferase reporter, luminescence (AID 602235);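 note: cells transfected with pGL4.31 reporter plus pBIND-SRC1 vector; potency is for inhibitors that lower SRC1 reporter luminescence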
Active and inactive are the calls of the source. The rule behind the calls is not given here.
Labels: 1 (yes) for active, 0 (no) for inactive

compound | assigned-label
CC(=O)C1=C(C)NC2=C(C(=O)CC(C)(C)C2)C1C (stereo not drawn) | 0 (no)
CCOC(=O)c1cccc2c1-c1ccccc1/C2=N/O | 1 (yes)
O=C(Nc1cccc(C(F)(F)F)c1)Nc1nnc([C@@H]2C[C@H](O)[C@@H](CO)O2)s1 | 1 (yes)
CN(Cc1cnc2nc(N)nc(N)c2n1)c1ccc(C(=O)N[C@@H](CCC(=O)O)C(=O)O)cc1 | 0 (no)
O=[N+]([O-])c1ccc2c(c1)-c1ccccc1C2=NO | 0 (no)
COc1cc2c(cc1OC)C(C)N(C(=O)c1cccc([N+](=O)[O-])c1)CC2 (stereo not drawn) | 0 (no)
O=[N+]([O-])c1ccc(N(CCO)CCO)c2c1no[n+]2[O-] | 0 (no)
CCOc1cccc(/C=N/NC(=O)c2cccnc2)c1O | 0 (no)
COc1ccc(CNc2ncc(-c3ccc(F)cc3)n2C)c2ccccc12 | 0 (no)
Cc1c2ccncc2cc2c1[nH]c1ccccc12 | 0 (no)
Cc1noc(/C=C/c2ccco2)c1S(=O)(=O)N1CCC(C(=O)Nc2ccc(Cl)cn2)CC1 | 0 (no)
CC(=O)c1cc2c(C)cc(=O)oc2cc1O | 0 (no)
CN(C)c1ccc(Nc2ncnc3ccc(Br)cc23)cc1 | 1 (yes)
